Entries annotated with measured koff
- Target desc: T1, recombinant C-terminally truncated RSV (A2 strain) F protein (RSV (A2 strain), UniProt P03420 26-524)
- T1 construct: extracellular domain; also called truncated F protein; extracellular domain of the F protein from RSV A2
- T1 sequence (P03420 26-109, chain 1 of 2): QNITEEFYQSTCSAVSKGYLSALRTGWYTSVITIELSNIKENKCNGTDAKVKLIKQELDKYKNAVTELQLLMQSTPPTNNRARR
- T1 sequence (P03420 137-524, chain 2 of 2): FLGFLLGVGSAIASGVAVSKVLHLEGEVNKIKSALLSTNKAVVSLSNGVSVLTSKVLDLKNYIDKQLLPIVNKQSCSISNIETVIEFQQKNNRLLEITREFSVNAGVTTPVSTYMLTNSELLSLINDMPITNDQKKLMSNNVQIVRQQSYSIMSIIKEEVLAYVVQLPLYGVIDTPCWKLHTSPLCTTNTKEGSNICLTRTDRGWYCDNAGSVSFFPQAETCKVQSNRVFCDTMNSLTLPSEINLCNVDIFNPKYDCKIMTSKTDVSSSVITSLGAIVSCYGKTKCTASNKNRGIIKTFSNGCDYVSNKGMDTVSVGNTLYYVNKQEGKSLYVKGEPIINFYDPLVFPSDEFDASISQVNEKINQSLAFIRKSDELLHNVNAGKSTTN
- Run description: SPR (BIAcore), Fab over immobilised F
Kindly provide the numeric value in s⁻¹ only, without the unit symbol.

Take a look at these entries with their results.
A8c7 Fab (Fab, V domains shown) VH: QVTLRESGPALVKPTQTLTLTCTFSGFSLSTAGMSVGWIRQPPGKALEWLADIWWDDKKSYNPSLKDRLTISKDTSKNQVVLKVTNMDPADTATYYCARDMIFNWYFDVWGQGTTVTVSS VL: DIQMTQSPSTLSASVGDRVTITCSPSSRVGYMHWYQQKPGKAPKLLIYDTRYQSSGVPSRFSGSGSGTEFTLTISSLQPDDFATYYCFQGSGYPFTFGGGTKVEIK | 0.0003
P12f2 Fab (Fab, V domains shown) VH: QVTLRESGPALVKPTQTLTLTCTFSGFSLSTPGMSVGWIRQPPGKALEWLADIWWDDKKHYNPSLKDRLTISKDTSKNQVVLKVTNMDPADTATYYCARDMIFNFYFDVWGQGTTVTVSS VL: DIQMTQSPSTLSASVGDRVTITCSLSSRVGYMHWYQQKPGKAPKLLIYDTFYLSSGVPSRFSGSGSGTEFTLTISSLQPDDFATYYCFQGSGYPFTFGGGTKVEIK | 7.2e-05
A1e9 Fab (Fab, V domains shown, also called Ale9) VH: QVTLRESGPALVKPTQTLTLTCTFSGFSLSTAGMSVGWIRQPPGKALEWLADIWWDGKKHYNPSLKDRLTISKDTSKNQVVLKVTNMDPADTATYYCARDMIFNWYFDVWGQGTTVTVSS VL: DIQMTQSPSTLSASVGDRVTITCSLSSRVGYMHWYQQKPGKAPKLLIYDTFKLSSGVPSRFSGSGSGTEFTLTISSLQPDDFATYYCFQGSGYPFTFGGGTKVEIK | 0.000113
A4b4 Fab (Fab, V domains shown) VH: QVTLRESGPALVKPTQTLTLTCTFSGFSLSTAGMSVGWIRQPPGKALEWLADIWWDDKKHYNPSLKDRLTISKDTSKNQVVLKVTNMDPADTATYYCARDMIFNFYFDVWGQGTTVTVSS VL: DIQMTQSPSTLSASVGDRVTITCSASSRVGYMHWYQQKPGKAPKLLIYDTFFLDSGVPSRFSGSGSGTEFTLTISSLQPDDFATYYCFQGSGYPFTFGGGTKVEIK | 5.2e-05

Moving on to another binder below.
Indicate its recorded koff; the binder in question is A17h4 Fab (Fab, V domains shown) VH: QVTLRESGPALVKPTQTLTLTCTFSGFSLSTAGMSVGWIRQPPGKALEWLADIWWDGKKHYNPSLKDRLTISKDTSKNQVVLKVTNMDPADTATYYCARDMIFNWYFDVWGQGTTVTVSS VL: DIQMTQSPSTLSASVGDRVTITCSPSSSVGYMHWYQQKPGKAPKLLIYDTYYLASGVPSRFSGSGSGTEFTLTISSLQPDDFATYYCFQGSGYPFTFGGGTKVEIK
0.000105
